Please go through the items and note down their normalized RNA/DNA level with ligand (log10).
B1: library; a variant is named by its letters at N, in order (parent)
chain: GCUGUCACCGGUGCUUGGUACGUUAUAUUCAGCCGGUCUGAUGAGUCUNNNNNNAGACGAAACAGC

Variants of: B1
run.description: normalized RNA/DNA level with ligand (relative to sTRSVctl = 100) (log10 (% of sTRSVctl)); HEK293T overexpressing SLC46A1; ligand concentration (+) RNA-Seq: 6 mM; higher = less ribozyme self-cleavage, higher mRNA level
measurement.setup: with (6R,S)-folinic acid; ligand present: yes
Give bare numbers.

Your task in this section: give normalized RNA/DNA level with ligand (log10) for each listed record.
1. UCGUGA
2. GUACAA
3. AUAUCU
4. GCGAUG

Resp:
1: 2.01; 2: 1.99; 3: 2.05; 4: 2.02

# map each variant to its normalized RNA/DNA level with ligand (log10)
1. GCAUUG
2. AGAGCC
3. ACUAUG
4. GUGAAC
5. CAAAAG
6. GCUCGC
7. CAGCAA

Resp:
1. 2.01
2. 2.04
3. 2.01
4. 2.01
5. 1.94
6. 2.03
7. 1.97

Dear reader, for each entry below, please note its normalized RNA/DNA level with ligand (log10).
1. UCGGAA
2. GGUAUC
3. UUCCGU
4. ACAGUU

Resp:
1. 1.99
2. 2.01
3. 2.05
4. 2.01
